Record form. Attribute: Inhibition. Fill in for each entry.
# method-description: Inhibition of rat alpha-glucosidase assessed as p-nitrophenol release at 50 ug/ml
Numbers only, in %.

Take a look at these entries with their results.
[
  {
    "compound-structure": "COc1ccc2c(=O)c(OC)c(-c3ccc(OC)c(OC)c3)oc2c1",
    "readout-name": "Inhibition",
    "unit-text": "%",
    "quantitative-result": 19.7
  },
  {
    "compound-structure": "COc1c(C(=O)/C=C(\\O)c2ccc3c(c2)OCO3)ccc2occc12",
    "readout-name": "Inhibition",
    "unit-text": "%",
    "quantitative-result": 29.7
  },
  {
    "compound-structure": "COc1c(-c2ccc3c(c2)OCO3)oc2c(ccc3occc32)c1=O",
    "readout-name": "Inhibition",
    "unit-text": "%",
    "quantitative-result": 21.4
  }
]

The molecule listed as `COc1c(-c2ccccc2)oc2c(ccc3occc32)c1=O` shows Inhibition equal to 26.3

Where do the numbers come from? From ChEMBL document CHEMBL1154076.
